# systemTested: SARS-CoV-2 Mac1 (Severe acute respiratory syndrome coronavirus 2, UniProt P0DTD1)
# methodNotes: biochemical
# conditionInfo: read-out: %inhibition
Where a name gives a salt, the structure may show the parent alone.
Provide the reported inhibition at 100 µM of each item.
Give bare numbers, in %.

Solved cases (3 shown):
molecule	systemTested	scaleUnit	inhibition at 100 µM
CCCCC(CC)COC(=O)CC(C(=O)OCC(CC)CCCC)S(=O)(=O)O (stereo not shown) [Docusate Sodium]	SARS-CoV-2 Mac1 (Severe acute respiratory syndrome coronavirus 2, UniProt P0DTD1)	%	14.3
CNC(=O)c1cc(Oc2ccc(NC(=O)Nc3ccc(Cl)c(C(F)(F)F)c3)cc2)ccn1	SARS-CoV-2 Mac1 (Severe acute respiratory syndrome coronavirus 2, UniProt P0DTD1)	%	15.7
COc1ccccc1N1CCN(CCCNc2cc(=O)n(C)c(=O)n2C)CC1 [Urapidil HCl]	SARS-CoV-2 Mac1 (Severe acute respiratory syndrome coronavirus 2, UniProt P0DTD1)	%	2.64

Okay, next one:
Q: May I ask what inhibition at 100 µM has been recorded for CC(=O)OCC[N+](C)(C)C [Acetylcholine iodide] ?
Ans: 0

---

# systemTested: UniProtKB P0DTD1
# methodNotes: biochemical
# conditionInfo: read-out: %inhibition
Where a name gives a salt, the structure may show the parent alone.
Threshold rule: inhibition at 100 µM greater than or equal to 1% is True; below that, False.

Take a look at these entries with their results.
compound	answerLabel
CN(C)CCC(c1ccc(Br)cc1)c1ccccn1 (stereo not shown) [Brompheniramine hydrogen maleate]	True
CSc1nc2cc(Cl)c(Oc3cccc(Cl)c3Cl)cc2[nH]1	True
NC(=O)c1ccc(I)c([N+](=O)[O-])c1	True
NS(=O)(=O)c1cc2c(cc1Cl)N=C(CSCc1ccccc1)NS2(=O)=O [Benzthiazide]	False
NC[C@H]1O[C@H](O[C@H]2[C@H](O)[C@@H](O[C@H]3O[C@H](CO)[C@@H](O)[C@H](N)[C@H]3O)[C@H](N)C[C@@H]2N)[C@H](O)[C@@H](O)[C@@H]1O [Kanamycin sulfate]	True

Q: For this compound, is measured inhibition at 100 µM 1% or higher? CC1CC(OC(=O)C(O)c2ccccc2)CC(C)(C)C1 (stereo not shown) [Cyclandelate]
Ans: False

Q: Another compound to check: `Nc1nc(Cl)nc2c1ncn2[C@H]1C[C@H](O)[C@@H](CO)O1`
Ans: True

---

# systemTested: UniProt P0DTD1
# methodNotes: biochemical
# conditionInfo: read-out: %inhibition
Counter-ions that a name gives are not always drawn.
Threshold rule: inhibition at 100 µM greater than or equal to 9% is 1 (yes); below that, 0 (no).

Take a look at these entries with their results.
compound	answerLabel
CC(C)[C@H](N)C(=O)OCCOCn1cnc2c(=O)nc(N)[nH]c21 [Valaciclovir HCl]	1 (yes)
C[C@H](N[C@@H](CCc1ccccc1)C(=O)O)C(=O)N1CCC[C@H]1C(=O)O [Enalaprilat Dihydrate]	1 (yes)
CCc1cc(/C(C)=N/OCc2ccc(C3CCCCC3)c(C(F)(F)F)c2)ccc1CN1CC(C(=O)O)C1 [BAF312 (Siponimod)]	1 (yes)
CCCCCCCCCCC[C@@H](C[C@@H]1OC(=O)[C@H]1CCCCCC)OC(=O)[C@H](CC(C)C)NC=O	0 (no)
CCNC(=O)[C@@H]1CCCN1C(=O)[C@H](CCCNC(=N)N)NC(=O)[C@H](CC(C)C)NC(=O)[C@@H](CC(C)C)NC(=O)[C@H](Cc1ccc(O)cc1)NC(=O)[C@H](CO)NC(=O)[C@H](Cc1c[nH]c2ccccc12)NC(=O)[C@H](Cc1c[nH]cn1)NC(=O)[C@@H]1CCC(=O)N1 [Leuprolide Acetate]	1 (yes)

Q: For this compound, is measured inhibition at 100 µM 9% or higher? `CC(C)C[C@H](NC(=O)CNC(=O)c1cc(Cl)ccc1Cl)B(O)O`
Ans: 0 (no)

Q: Another compound to check: C[C@]12CCC(=O)C=C1C=C[C@@H]1[C@@H]2CC[C@@]2(C)[C@H]1CC[C@@]2(O)CCC(=O)O [Potassium Canrenoate]
Ans: 0 (no)

Q: Another compound to check: `C[C@@H]1CC(=O)NN=C1c1ccc(NN=C(C#N)C#N)cc1`
Ans: 0 (no)

Q: Another compound to check: `O=C(O)CCC(=O)Nc1ccc(S(=O)(=O)Nc2nccs2)cc1`
Ans: 0 (no)

Q: Another compound to check: CC(C)(Oc1ccc(C2CC2(Cl)Cl)cc1)C(=O)O (stereo not shown) [Ciprofibrate]
Ans: 1 (yes)

Q: Another compound to check: `O=C(Nc1cccc2c(=O)cc(-c3nnn[nH]3)oc12)c1ccc(OCCCCc2ccccc2)cc1`
Ans: 0 (no)
